- EXPERIMENT SUMMARY: Acute toxicity
- CONDITION SET: mouse, in vivo, ip; ICR male mice weighing 18-23 g, intraperitoneally administered for one week; read-out: 50% lethal toxicity (LD50)
- Description: ICR male mice weighing 18-23 g were intraperitoneally administered with the test compounds for one week, and the 50% lethal toxicity (LD50 : mg/kg) was measured by a conventional method.
Consider the following molecules; for each one, report its LD50.
Numeric only. Scale: mg/kg

GET /values?readout=LD50&item= Nc1nc(O)c2c(n1)n([C@H]1C[C@H](O)[C@@H](CO)O1)c[n+]2[O-] [Compound B, 7-hydroxyguanine deoxyriboside] 172

GET /values?readout=LD50&item= Nc1nc(O)c2c(n1)n([C@@H]1O[C@H](CO)[C@@H](O)[C@H]1O)c[n+]2[O-] [Compound A, 7-hydroxyguanine riboside] 192
